# TEST NAME: Solubility measurements
# Type: physicochemical
# RUN CONDITIONS: DPBS, 25 °C, aqueous buffer, thermodynamic from solid; read-out: solubility in DPBS
OUTCOME MEASURE: solubility at 48 h (µg/mL)
Lab book: enter the figure in µg/mL, no units written.

Look at this molecule and give its reported solubility at 48 h. COc1cc(/C=C/C(=O)OC/C=C(\C)CCC=C(C)C)ccc1O [Fer-Ger, Geranyl ferulate]
0.24

---

# TEST NAME: Hydrolysis kinetics in rat liver homogenates
# Type: in vitro ADME
# RUN CONDITIONS: male, Wistar, liver homogenate, pH 7.4, 37 °C, 30 µM, pseudo-first-order kinetic
OUTCOME MEASURE: half-life at 30 µM (min)
Lab book: enter the figure in min, no units written.

Look at this compound and give its reported half-life at 30 µM. COc1cc(/C=C/C(=O)OC/C=C(\C)CCC=C(C)C)ccc1O [Fer-Ger, Geranyl ferulate]
3.94
